Would you mind telling me the reported Enzyme Activity Endpoint Assay (purified): IgG of each entry?
- subject.of.test: pooled human IgG
Give bare numbers, in ng/µL.

As a guide, the following entries are already answered.
protein	obs.value
PRT-125 (protein) MRNATEAYAKEVPHQITSVWTKGVTPLTPEQFRYNNEDVFHAPYLANQGWYDITKTFDGKDNLLCGAATAGNMLHWWFDQNKTEIEAYLSKHPEKQKIIFNNQELFDLKAAIDTKDSQTNSQLFNYFRDKAFPNLSARQLGVMPDLVLDMFINGYYLNVFKTQSTDVNRPYQDKDKRGGIFDAVFTRGDQTKLLTARHDLKNKGLNDISTLIKQELTEGKALALSHTYANVSISHVINLWGADFNAEGNLEAIYVTDSDANASIGMKKYFVGVNAHGHVAISAKKIEGENIGAQVLGLFTLSSGKDIWQKLS	0
PRT-158 (protein) MANQEIRYSEVTPYHVTSVWTKGVTPPTDFIKGEDVFHAPYKAHQGWYDITKTFNGKDDLLCGAATAGNMLHWWFDQNKDQIKRYLEEHPEKQKINFNGEQMFDVKEAIDTKNHQLDSKLFEYFKEKAFPYLSTKHLGVFPDHVIDMFINGYRLSLTNHGPTPVKEGSKDPRGGIFDAVFTRGDQSKLLTSRHDFKEKNLKEISDLIKKELQEGKALGLSHTYANVRINHVINLWGADFDSNGNLKAIYVTDSDSNASIGMKKYFVGVNSAGKVAISAKEIKEDNIGAQVLGLFTLSTGQDSWNQTN	0
PRT-265 (protein) MVTSVWTKGVTPPTNFTYGEDVLHAPYVANQGWYDITKLFNGKDNLLCGAATAGNMLHWWFDQNKEQIENYLKKHPEKQKINFNGEQLFDVKEAIDTKDSQLDSKLFEYFLEKAFPYLSTKHLGVFPDHVIDMFINGYRLSLTNHGPTPVKRGSKDKRGGIFDAVFTRGVQSKLLTNRHDFKEKTLKEISDLIKQELTEGKALGISHTYANVRINHVINLWGADFDAEGNLEAIAVTDSDTNASIGMKKYFVGVNSSGKVAISAKEIEEDNIGAQVLGLFTLSTGQDIWNQTN	1640
PRT-124 (protein) MRNATEAYAKEVPHQITSVWTKGVTPLTPEQFRYNNEDVIHAPYLAHQGWYDITKTFDGKDNLLCGAATAGNMLHWWFDQNKTEIEAYLSKHPEKQKIIFNNQELFDLKAAIDTKDSQTNSQLFNYFRDKAFPNLSARQLGVMPDLVLDMFINGYYLNVFKTQSTDVNRPYQDKDKRGGIFDAVFTRGDQTTLLTARHDLKNKGLNDISTIIKQELTEGKALALSHTYANVSISHVINLWGADFNAEGNLEAIYVTDSDANASIGMKKYFVGVNAHGKVAISAKKIEGENIGAQVLGLFTLSSGKDIWQKLS	0
PRT-665 (protein) MQITSVWTKGVTPPTPEQFRYNNEDVIHAPYLAHQGWYDITKAFDGKDNLLCGAATAGNMLHWWFDQNKTEIEAYLSKYPEKQKIIFNNQELFDLRAAINTKDSQTNSQLFNYFRDKAFPNLSARQLGVMPDLVLDMFINGYYLNVFKTQSTDVNRPYQDKDKRGGIFDAVFTRGDQTTLLTARHDLSNKGLNDISTIIKQELTEGRALALSHTYANVSISHVINLWGADFNAEGNLEAIYVTDSDSNASIGMKKYYVGINASGHVAISAKKIEGEVIGAQVLGLFTLSSGKEIWQKLSLEHHHHHH	63
PRT-273 (protein) MVTSVWTKGVTPPTDFIYGEDVLHAPYKAGQGWYDITKTFNGKDNLLCGAATAGNMLHWWFDQNKEQIENYLKKHPEKQKIIFNNQELFDLKAAIDTKDSQLDSKLFEYFKEKAFPNLSTKHLGVFPDHVIDMFINGYRLSLLNHGPTPVKRGSKDKRGGIFDAVFTRGVQSKLLTNRHDLKNKTLKEISDLIKQELTEGKALGISHTYANVRINHVINLWGADFDAEGNLEAIYVTDSDTNASIGMKKYFVGVNSSGKVAISAKEIEEDNIGAQVLGLFTLSTGQDIWNQTN	0
PRT-678 (protein) MQITTVWTKGVTPLTPEQFRYNNEEVIHAPYKAGQGWYDITKVFDGKDNLLCGAATAGNMLHWWFDQNKTEIEAYLSKHPEKQKIIFNNQELFDLKRAIDDKDSQTNSQLFNYFRDKAFPNLSARQLGVMPDLVLDMFINGYYLNVFKTQSTDVNRPYQDPDKRGGIFDDVFGKGDQTTLLTARHDLKNLGLEDISTIIKQELRNGRALALSHTYANVSISHVINLWGADFNAEGNLSAIYVTDSDANNSIGMKKYKVGYNAHGRVAISAKKIEGENIGAQVLGLFTLSSGKDIWQKLSLEHHHHHH	39

// below: Enzyme Activity Endpoint Assay (purified): IgG requested for another protein
For the protein shown here, PRT-240 (protein) MEVVEVWPYGQNPNGKTEILSQTEDSESLQRLRDIEDFQAEKKMQNVVYTKWLDGVDVKDHDFRKIVDGDYAYYATPLLNGRGFYDINKDFNRDSDKCAAAVAANMFHYWLDINRDNVDRFLRQNPEKHGIIELPDGQLKLSDFLNTYESDHGYRDKSKLFDFISNAFNGPVWADKLLDNYINGYGYNKKYGRTIEDPTKNTSKFNFFKEVFNEKILTNNHQIRNQNEFSVLLSEALYTGKAIGLAYGPGGLRHSLGHIISVWGADLDADGNVVAIYVTDSDDKKLTIGDERVGLKRYKISTDDNNRLRLTTYEETHNTGAQIRGLETLDTGKYAWADYFDKTEQTGTDQAEQLEHHHHHH , give the reported Enzyme Activity Endpoint Assay (purified): IgG.
1400

The values you see were collected from patent US20250027068.
